Attribution: ChEMBL document CHEMBL1154560

Assay: Toxicity in Artemia larvae
Format: organism-based
Conditions: in vivo, read-out: LD50 (the source's name)
property-measured: LC50 (µg/mL)
One number for each entry, in µg/mL.

* C=C1CCC[C@H]2[C@](C)(CC3=C(O)C(=O)C=C(OC)C3=O)[C@@H](C)CC[C@@]12C | 4

Now let's try a different one.
Prompt: Query: LC50; subject: COC1=CC(=O)C(O)=C(C[C@]2(C)[C@@H](C)CC[C@]3(C)C(C)=CCC[C@@H]23)C1=O [ISOSPONGIAQUINONE]
Completion: 2
